These data points were gathered from the supplement of paper PMC10724198.

System: Saccharomyces cerevisiae
Assay summary: protein stability index of tFT-peptide fusion (C-terminal peptide) (PSI (0-1 scale)); higher = more stable (slower turnover)
Assay conditions: genetic background: das1 deletion; temperature: 30 C
Would you mind telling me the reported protein stability index of each entry?
Note: the reply should be a number with no unit written.

Which protein stability index value is on record for SLVKTHNSSLCK [IAI11 C-terminal 12 aa] ? 0.663

Which value of protein stability index has been reported for IVSFLSDETKSP [ECM18 C-terminal 12 aa] in the records? 0.728

Using the record for MKKLQNKKSSAV [CAB5 C-terminal 12 aa] , report its protein stability index. 0.695

Quick one: protein stability index of QMVRDEGFEKNP [GPM3 C-terminal 12 aa] ? 0.68

Param item = NKKPKNKKKGRK [SRP72 C-terminal 12 aa] ; retrieve measured protein stability index. 0.684

Which protein stability index is reported for this sequence? PHYAGCLEDIIF [YER066C-A C-terminal 12 aa] 0.719
